These data points were gathered from paper PMC6792352.

# Method Notes: in vitro
# Experimental Parameters: rat, gh3-tre-luc cells, AC50 (uM) modified / 1000, Tox21_110001=Tox21_301642; viability, 1 nM T3 present, 24 h
Measurement Name: CC50 at 24 h

### Prompt Retrieve CC50 at 24 h measured for CC(C=O)Cc1ccc2c(c1)OCO2 (stereo not shown) and print it.
### Response > 90 µM

----------
# Method Notes: in vitro
# Experimental Parameters: rat, gh3-tre-luc cells, AC50 (uM) modified / 1000, Tox21_110001=Tox21_200998; viability, 1 nM T3 present, 24 h
Measurement Name: CC50 at 24 h

### Prompt Retrieve CC50 at 24 h measured for CC(O)CCl (stereo not shown) and print it.
### Response > 90 µM

----------
# Method Notes: in vitro
# Parameters: species or system GH3-TRE-Luc (rat pituitary); CellTiter-Fluor viability run in parallel with antagonist mode (1 nM T3), loss of viability
# Experimental Parameters: rat, gh3-tre-luc cells, AC50 (uM) modified / 1000, Tox21_110001=Tox21_302134, viability, 1 nM T3 present
Measurement Name: CC50 at 24 h

### Prompt Retrieve CC50 at 24 h measured for C1=CCC=C1 and print it.
### Response > 90 µM

----------
# System: GH3-TRE-Luc cell line
# Experimental Parameters: read-out: AC50 (uM) modified / 1000; Tox21_110001=Tox21_300297; viability, 1 nM T3 present, 24 h
Measurement Name: CC50 (µM)
Give the value, in units of µM, as a plain number.

### Prompt Retrieve CC50 measured for Oc1ccc2ccccc2c1N=Nc1ccccc1 and print it.
### Response 62.3

----------
# Method Notes: in vitro
# Experimental Parameters: rat, gh3-tre-luc cells, AC50 (uM) modified / 1000, Tox21_110001=Tox21_201731; viability, 1 nM T3 present, 24 h
Measurement Name: CC50 at 24 h

### Prompt Retrieve CC50 at 24 h measured for CNC(=O)O/N=C(\SC)C(=O)N(C)C and print it.
### Response > 100 µM

----------
# Method Notes: in vitro
# Experimental Parameters: rat, gh3-tre-luc cells, AC50 (uM) modified / 1000
Where a name gives a salt, the structure may show the parent alone.
Recorded CC50 at 24 h for the following compounds

// worked examples, CC50 at 24 h included
Compound | Measurement Name | Measurement
CCCCCCCCCCCc1ccccc1 | CC50 at 24 h | > 90 µM
CC(C)=CCOc1c2occc2cc2ccc(=O)oc12 | CC50 at 24 h | > 50 µM
CN(C)C(=O)CCSC(SCCC(=O)O)c1cccc(/C=C/c2ccc3ccc(Cl)cc3n2)c1 (centres unmarked) [MK-571 sodium] | CC50 at 24 h | 28.9 µM
COCCOc1cc2cc(C(=O)NC3CCN(C(C)C)CC3)n(CC(=O)Nc3ccc(Cl)cn3)c2cn1 | CC50 at 24 h | 71.7 µM

### Prompt Retrieve CC50 at 24 h measured for O=C(O)c1c(Cl)cccc1Cl and print it.
### Response > 90 µM

### Prompt Retrieve CC50 at 24 h measured for C=CC(=O)OCCOc1ccccc1 [2-Phenoxyethyl acrylate] and print it.
### Response > 90 µM

### Prompt Retrieve CC50 at 24 h measured for CCOCC(O)COc1ccc(NC(=O)CC[S+](C)C)cc1 (centres unmarked) [Suplatast tosylate] and print it.
### Response > 50 µM

### Prompt Retrieve CC50 at 24 h measured for CO[C@H]1/C=C/O[C@@]2(C)Oc3c(C)c(O)c4c(O)c(c(/C=N/N5CCN(C)CC5)c(O)c4c3C2=O)NC(=O)/C(C)=C\C=C\[C@H](C)[C@H](O)[C@@H](C)[C@@H](O)[C@@H](C)[C@H](OC(C)=O)[C@@H]1C and print it.
### Response 29.8 µM
